Protocol: TOR pathway GLN3 branch reporter MEP2-GFP changes – S. cerevisiae, multiplex flow cytometry, primary screen (AID 1867);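 also: median GFP channel fluorescence of barcode-gated MEP2-GFP cells measured by flow cytometry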
Stated conditions: S. cerevisiae MEP2-GFP strain, 3 h, at 10 µM, active compounds read high, 100% means same as DMSO wells
Inconclusive results are not listed.
# reported GFP response vs DMSO; entries follow
API: value field is a number in %; no unit string.

Previously resolved entries follow.
| Molecule | Reported measurement |
| --- | --- |
| Cc1ccc(OCc2nc(-c3cccnc3)no2)cc1C | 124 |
| O=c1[nH]c(=O)n(C2CCCO2)cc1F (stereo unspecified) | 117 |
| COc1ccc(C=O)c(OC)c1 | 98.6 |

Would you mind telling me what GFP response vs DMSO value was observed for CC1(C)CC(NC(=O)C23CCC(C)(C(=O)C2=O)C3(C)C)CC(C)(C)N1 (stereo unspecified) ?
112

Would you mind telling me what GFP response vs DMSO value was observed for CCN(CC)CCNC(=O)c1cc(Cl)c(N)cc1OC ?
107

Would you mind telling me what GFP response vs DMSO value was observed for COC(=O)C1[C@H]2C(=O)N(Cc3cccs3)C[C@]23C=C[C@H]1O3 (stereo partly specified) ?
90.9
